Molecular target: Retinoic acid receptor gamma (Homo sapiens)
Sequence (P13631 whole entry): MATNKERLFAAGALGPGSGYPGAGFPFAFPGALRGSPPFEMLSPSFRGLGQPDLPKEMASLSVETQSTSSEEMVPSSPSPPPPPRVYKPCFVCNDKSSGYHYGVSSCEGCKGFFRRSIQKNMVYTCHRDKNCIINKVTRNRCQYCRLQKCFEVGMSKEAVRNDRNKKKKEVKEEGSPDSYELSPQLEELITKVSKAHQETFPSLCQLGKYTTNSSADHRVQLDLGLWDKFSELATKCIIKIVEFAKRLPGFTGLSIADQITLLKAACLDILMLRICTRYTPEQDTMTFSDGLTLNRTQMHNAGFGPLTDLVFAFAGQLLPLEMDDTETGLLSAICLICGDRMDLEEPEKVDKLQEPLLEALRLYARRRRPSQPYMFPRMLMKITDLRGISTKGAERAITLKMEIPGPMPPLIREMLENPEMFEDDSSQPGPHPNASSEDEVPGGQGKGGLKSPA
pKd: −log10 of the molar value.
measure name: pKd

The molecule listed as CC1(C)CCC(C)(C)c2c1cc(C(=O)Nc1ccc(C(=O)O)c(F)c1)c(O)c2Br has a reported pKd of < 4.52

pKd reading for CC1(C)CCC(C)(C)c2c1cc(C(=O)Nc1cc(F)c(C(=O)O)c(F)c1)c(O)c2Br : < 4.52

Reference source for all entries: ChEMBL document CHEMBL1129255
